Provide the recorded plant weight for the entries that follow.
system: Arabidopsis thaliana Col-0; assay: Germination rate and phytotoxicity; type: in vivo; settings: 10 µM; 10 DPS
Answer in mg, number only, no unit symbol.

Entry CC(C)Oc1cc(-c2ccc3[nH]ccc3c2)ccc1Cl needs its plant weight filled in; supply it.
35.66

Entry CC(C)c1ccc(-c2ccc3[nH]ccc3c2)cc1 needs its plant weight filled in; supply it.
28.28

Entry CCOc1cc(-c2ccc3[nH]ccc3c2)ccc1Cl needs its plant weight filled in; supply it.
31.97

Entry CCCOc1cccc(-c2ccc3[nH]ccc3c2)c1 needs its plant weight filled in; supply it.
34.91

Entry CCOc1cccc(-c2ccc3[nH]ccc3c2)c1 needs its plant weight filled in; supply it.
35.69

Entry Fc1ccc(-c2ccc3[nH]ccc3c2)cc1 needs its plant weight filled in; supply it.
27.14

Entry Clc1ccc(-c2ccc3[nH]ccc3c2)cc1 needs its plant weight filled in; supply it.
30.72

Entry CCCOc1ccc(-c2ccc3[nH]ccc3c2)cc1 needs its plant weight filled in; supply it.
36.95

Entry CC(C)Oc1cccc(-c2ccc3[nH]ccc3c2)c1 needs its plant weight filled in; supply it.
31.55

Entry FC(F)(F)Oc1ccc(-c2ccc3[nH]ccc3c2)cc1 needs its plant weight filled in; supply it.
36.56

====

Test system: Arabidopsis thaliana Col-0
Assay: Germination rate and phytotoxicity
Format: in vivo
Settings: 50 µM; 10 DPS
Experimental: Wild-type A. thaliana (Col-0 ecotype) seeds were sterilized with 70% EtOH with 0.1% Tween-20 solution (2 × 1 mL) for 10 min, rinsed with 96% EtOH (1 × 1 mL) for 10 min, and kept in the fridge (4 °C in the dark). […] After 5 days, the germination rate was evaluated. After an additional 5 days, primary root growth was measured with ImageJ software (https://imagej.nih.gov/ij/), and seedlings were weighted.
readout: plant weight (mg)
Answer in mg, number only, no unit symbol.

Entry CC(C)Oc1cc(-c2ccc3[nH]ccc3c2)ccc1Cl [i-27] needs its plant weight filled in; supply it.
30.34

Entry FC(F)(F)Oc1ccc(-c2ccc3[nH]ccc3c2)cc1 [i-21] needs its plant weight filled in; supply it.
24.65

Entry Fc1ccc(-c2ccc3[nH]ccc3c2)cc1 [i-20] needs its plant weight filled in; supply it.
24.67

Entry Clc1ccc(-c2ccc3[nH]ccc3c2)cc1 [i-19] needs its plant weight filled in; supply it.
24.85

Entry CC(C)c1ccc(-c2ccc3[nH]ccc3c2)cc1 [i-17] needs its plant weight filled in; supply it.
26.18

Entry CC(C)Oc1cccc(-c2ccc3[nH]ccc3c2)c1 [i-15] needs its plant weight filled in; supply it.
29.94

Entry CCOc1cc(-c2ccc3[nH]ccc3c2)ccc1Cl [i-25] needs its plant weight filled in; supply it.
27.79

Entry CCOc1cccc(-c2ccc3[nH]ccc3c2)c1 [i-9] needs its plant weight filled in; supply it.
31.4

Entry CCCOc1ccc(-c2ccc3[nH]ccc3c2)cc1 [i-13] needs its plant weight filled in; supply it.
26.29

Entry CCCOc1cccc(-c2ccc3[nH]ccc3c2)c1 [i-12] needs its plant weight filled in; supply it.
27.55

====

Provide the recorded average activity counts for the entries that follow.
test system: age unsynchronized Ditylenchus destructor; assay: Motility on WMicrotracker ONE; format: in vivo; conditions: 10 µM; 72 h
Write no unit; give the number alone.

Entry Fc1ccc(-c2ccc3[nH]ccc3c2)cc1 needs its average activity counts filled in; supply it.
187

Entry CC(C)Oc1cccc(-c2ccc3[nH]ccc3c2)c1 needs its average activity counts filled in; supply it.
224

Entry CC(C)Oc1cc(-c2ccc3[nH]ccc3c2)ccc1Cl needs its average activity counts filled in; supply it.
211

Entry CCOc1cccc(-c2ccc3[nH]ccc3c2)c1 needs its average activity counts filled in; supply it.
205

Entry CCCOc1ccc(-c2ccc3[nH]ccc3c2)cc1 needs its average activity counts filled in; supply it.
207

Entry FC(F)(F)Oc1ccc(-c2ccc3[nH]ccc3c2)cc1 needs its average activity counts filled in; supply it.
183

Entry CCCOc1cccc(-c2ccc3[nH]ccc3c2)c1 needs its average activity counts filled in; supply it.
218

Entry CC(C)c1ccc(-c2ccc3[nH]ccc3c2)cc1 needs its average activity counts filled in; supply it.
212

Entry Clc1ccc(-c2ccc3[nH]ccc3c2)cc1 needs its average activity counts filled in; supply it.
232

Entry CCOc1cc(-c2ccc3[nH]ccc3c2)ccc1Cl needs its average activity counts filled in; supply it.
194
